// values below are reported melting point

Worked set:
COc1ccc(Cn2c3ccc(Cl)cc3c3c(C(=O)Nc4c(Cl)cncc4Cl)ccc(OC)c32)cc1    257 to 258 °C
CCCCc1oc2ccc([N+](=O)[O-])cc2c1C(=O)c1ccc(OCCCCCBr)cc1    55 °C
CS(=O)(=O)c1ccc(C2=C(c3ccc(C(F)(F)F)cc3)CCC2)cc1    134 to 135 °C
CC1(C)Oc2ccc(C#N)cc2[C@@H](NC(=O)Nc2ccc3c(c2)CNC3)[C@@H]1O    215 to 217 °C

Turning to the following compound.
Which melting point reading was recorded for the compound O=C1CCC(c2ccc3[nH]c(-c4ccccc4)cc3c2)=NN1 ?
270 to 275 °C

* * *

// values below are reported melting point

CCCCC(Cn1cnc([N+](=O)[O-])c1)c1ccc(Cl)cc1Cl (stereo unspecified)    67 to 69 °C
CSC[C@H](NC(C)=O)C(=O)NO    126 to 127 °C

Which melting point reading was recorded for the molecule CCCOc1ccc(S(=O)(=O)CCC)cc1C(N)=O ?
168 to 170 °C

Which melting point reading was recorded for the molecule OCc1ccccc1SCc1cc2c(cc1O)CCCO2 ?
140 to 141 °C

Which melting point reading was recorded for the molecule Cc1nn(-c2cc3nc(S(C)=O)sc3cc2F)c(=O)n1C (stereo unspecified) ?
199 to 201 °C

Which melting point reading was recorded for the molecule CCCCCNc1nc(N(C)Cc2ccccc2)c2ncn(CC(=O)O)c2n1 ?
134 to 142 °C

Which melting point reading was recorded for the molecule COc1ccc2nc(-c3c[nH]c4ccccc34)[nH]c(=O)c2c1 ?
311 to 312 °C

Which melting point reading was recorded for the molecule CSc1nn2c(=O)cc(CCl)nc2s1 ?
168 to 169 °C

Which melting point reading was recorded for the molecule O=C(NC12CC3CC(CC(C3)C1)C2)c1cc(O)c(O)c([N+](=O)[O-])c1 ?
207 to 208 °C

Which melting point reading was recorded for the molecule CCOC(=O)c1ccc(-c2nc(COc3ccc(COc4nn(-c5ccccc5)cc4/C=C/P(=O)(OCC)OCC)cc3OC)c(C)o2)s1 ?
114 to 115 °C

Which melting point reading was recorded for the molecule CNC(=O)Nc1cc(CNc2ncccc2C(=O)OC)ccn1 ?
145 to 146 °C

* * *

ASSAY READOUT: melting point

Worked set:
Cc1ccc(C(=O)NC(NC(=S)Nc2cccc(F)c2F)C(F)(F)F)cc1 (configuration not stated)    210 to 211 °C
CC(=O)N[C@@H](CSC(c1ccccc1)(c1ccccc1)c1ccccc1)C(=O)NCCSC(=O)C(C)(C)C    212 to 213 °C
O=C(CN1CCOCC1)Nc1ccc(-c2n[nH]c3c2Cc2ccccc2-3)cc1    291 to 292 °C
Oc1ccc2c(c1)Sc1ccccc1CN2    172 to 174 °C
CC(=O)Nc1cccc(-c2cccc(-n3cnc4cc(C(F)(F)F)ccc43)c2)c1    118 to 120 °C

Which melting point reading was recorded for the molecule COc1ccc(COC(=O)NC(CO)Cc2ccc(O)cc2)cc1 (configuration not stated) ?
139 to 141 °C

Which melting point reading was recorded for the molecule O=C1C(=C2CC=Cc3ccccc32)CCCC1=C1CC=Cc2ccccc21 ?
212 to 213 °C

Which melting point reading was recorded for the molecule COc1ccc(S(=O)(=O)N(C)C)cc1-c1ccc(CN2CCCCC2)[nH]1 ?
78 to 79 °C

Which melting point reading was recorded for the molecule CCCCN(CCCC)c1cc(OC)c(C=Cc2cccs2)c(OC)c1 ?
90 °C

Which melting point reading was recorded for the molecule C=C(c1ccccc1OCCCCl)c1cccc2[nH]ccc12 ?
70 to 72 °C

Which melting point reading was recorded for the molecule Cc1[nH]c(=O)[nH]c(=O)c1N1CCN(Cc2ccccc2)CC1 ?
263 °C

Which melting point reading was recorded for the molecule OCC1OC(n2cnc3c(NCCc4cccs4)ncnc32)C(O)C1O (configuration not stated) ?
153 to 154 °C

Which melting point reading was recorded for the molecule COc1cc(CN2CCN(c3ccc(O)cc3)CC2)nc(-c2ccccc2)n1 ?
166 to 167 °C

Which melting point reading was recorded for the molecule COc1ccc(-n2cc(C(=O)O)c(=O)c3cc(F)c(F)cc32)cc1 ?
256 to 258 °C

Which melting point reading was recorded for the molecule CC(C)c1cccc(F)c1NC(=S)N/N=C/c1ccc(-c2ncn(-c3ccc(OC(F)(F)F)cc3)n2)cc1 ?
210 to 212 °C

Which melting point reading was recorded for the molecule O=Cc1c(Cl)ccc(Br)c1F ?
92 to 93 °C

Which melting point reading was recorded for the molecule CCCc1n[nH]c(=O)n1C ?
77 °C

Which melting point reading was recorded for the molecule CC=CCN1c2cc(Cl)ccc2NC(=O)[C@@H]1C ?
87 to 88 °C

Which melting point reading was recorded for the molecule COC(=O)Cc1c(C)ncnc1Oc1cccc(-c2ccccc2)c1 ?
113 to 115 °C

Which melting point reading was recorded for the molecule Cc1nc(Cc2ccc(O)cc2)c2c(c1OCCCCNC(C)C)COC2 ?
59 to 61 °C

Which melting point reading was recorded for the molecule CC1N=C(c2ccccc2)NC1=O (configuration not stated) ?
165 °C

Which melting point reading was recorded for the molecule NS(=O)(=O)c1ccc(-c2oc(Cl)nc2-c2ccccc2)cc1 ?
158 to 159 °C

* * *

// values below are reported melting point

Worked set:
O=C(O)CCn1c(=O)c(=O)[nH]c2cc([N+](=O)[O-])ccc21    148 to 156 °C
Cc1c(NC(=O)c2ccc(-c3ccc(F)cc3)c(F)c2)ccc2cc(CN3CCCCCC3)cnc12    162 to 163 °C
C=Cc1c(NCc2ccco2)nc(-c2ccc(Cl)c(OC)c2F)nc1C(=O)OC    100 to 102 °C

Which melting point reading was recorded for the compound CC(C)(C)OC(=O)ON=C(c1ccccc1)c1ccccc1 ?
126 to 133 °C

Which melting point reading was recorded for the compound CCCOC(=O)C1Oc2ccccc2Cc2ccccc2O1 ?
82 to 85 °C

Which melting point reading was recorded for the compound COC(=O)C(Sc1ccc(Cl)cc1)c1ccc(Oc2ccccc2)cc1 (stereo not given) ?
66 to 67.5 °C

Which melting point reading was recorded for the compound CC1(c2ccccc2)CNC(=O)O1 (stereo not given) ?
144 to 145 °C

Which melting point reading was recorded for the compound CC1(C)[C@@H](CNc2ncccc2C#N)CC[C@@]1(C)NCC(=O)N1C[C@@H](F)C[C@H]1C#N ?
96 to 99 °C

Which melting point reading was recorded for the compound CCOC(=O)OC1CCC2(C)C3=C(CCC2C1)C1=CCC(C(C)CCCC(C)C)C1(C)CC3 (stereo not given) ?
101 to 106 °C

Which melting point reading was recorded for the compound CC(=O)Nc1ccc2c(c1)C(=O)N(c1ccc3c(ccn3C)c1)C2 ?
275 to 280 °C

* * *

ASSAY READOUT: melting point

Worked set:
CCCCC(CC(=O)O)c1cc(Cl)c(OC)cc1OC (stereo unspecified)    91 to 92 °C
COc1ccc2nc(O)nc(O)c2c1    > 290 °C
CC(C)Oc1cc(O)c(C(=O)C=Cc2ccccc2OC(C)C)c(OC(C)C)c1    119 to 120 °C

Which melting point reading was recorded for the compound Cc1c(-c2ccccc2)oc2c(C(=O)CCC(=O)O)cccc2c1=O ?
191 to 192 °C

Which melting point reading was recorded for the compound CCOc1ccc2ccccc2c1C(=O)N[C@H](Cc1ccc(C(F)(F)F)cc1)[C@H](O)c1ccc(F)cc1 (racemic) ?
157 to 158 °C

Which melting point reading was recorded for the compound NNC(=O)Cn1c(=S)sc2ccccc21 ?
214 to 215 °C

Which melting point reading was recorded for the compound O=c1ccc(S(=O)(=O)c2cc3ccccc3[nH]2)n[nH]1 ?
248 to 249 °C

Which melting point reading was recorded for the compound O=C(O)COc1cc(F)cc(F)c1C(=O)NCc1ccc(Br)cc1F ?
158 to 159 °C

Which melting point reading was recorded for the compound Cc1cccnc1C(=O)NCCNC(=O)OC(C)(C)C ?
81 to 82 °C

Which melting point reading was recorded for the compound CCN1CSCN(CC)C1=S ?
94 to 97 °C

Which melting point reading was recorded for the compound OCc1c(Cl)nc(C2CCCC2)n1Cc1ccccc1 ?
102 to 103 °C

* * *

// values below are reported melting point

Worked set:
COc1cc(C(=O)OCC2(N(C)C)CCCc3sccc32)cc(OC)c1OC (centres undefined)    82 to 83 °C
CC(C)(C)OC(=O)C(C1NC(C(=O)OCc2ccccc2)C2(CCOCC2)S1)N1C(=O)c2ccccc2C1=O (centres undefined)    168 to 169 °C
CN(C)C=Nc1c(Cl)cc(N=Cc2ccc(-c3ccccc3)cc2)cc1Cl    108 to 110 °C

Which melting point reading was recorded for the compound CCC(C(O)c1ccc(Cl)cc1)n1ncn(-c2ccc(N3CCN(c4ccccn4)CC3)nc2)c1=O (centres undefined) ?
171 °C

* * *

// values below are reported melting point

Worked set:
CCOC(=O)Nc1ccc(C2=NN(c3nnc(C)s3)[C@H](C)Cc3cc4c(cc32)OCO4)cc1C    241 to 244 °C
N#Cc1[nH]c2ccc(Cl)cc2c1-c1c(F)cccc1F    199 to 200 °C
Cc1cc(N)c(C)c(C(=O)O)c1    146 °C
Cc1cc(O)c2c(c1C)C(=O)CC2    171 to 173 °C
COC(=O)c1nc(CI)n(-c2ccc(Cl)cc2C(=O)c2ccccc2Cl)n1    125 to 128 °C

Which melting point reading was recorded for the molecule O=C(Nc1ccc(N2CCN(C(=O)C(O)c3ccccc3Cl)CC2)nc1)Nc1ccccc1F (configuration not stated) ?
127 to 128 °C

Which melting point reading was recorded for the molecule O=Cc1c(F)cc(F)cc1-c1ccc(F)cc1 ?
69 to 71 °C

Which melting point reading was recorded for the molecule CN1CCN(CCCCNc2ncc3cc(-c4c(Cl)cccc4Cl)c(=O)n(C)c3n2)CC1 ?
130 to 132 °C

Which melting point reading was recorded for the molecule COc1ccccc1Oc1c(NS(=O)(=O)c2ccc(C(C)(C)C)cc2)nc(SC)nc1OCCO ?
139 to 140 °C

Which melting point reading was recorded for the molecule CCC1C=CCCC1C(O)C(N)=O (configuration not stated) ?
156 to 158 °C

Which melting point reading was recorded for the molecule CCOC(=O)C1=C(N)N=C(OCC)C(C(=O)OCC)C1c1cccc(C#N)c1 (configuration not stated) ?
159 °C

Which melting point reading was recorded for the molecule COc1cc(N)c(Cl)cc1C(=O)NCC1CCN(CCCC(=O)c2ccccc2)CC1 ?
148 to 150 °C

Which melting point reading was recorded for the molecule CCOC(=O)c1cc2ccc3cc4ccccc4cc3c2n1C ?
165 to 166 °C

Which melting point reading was recorded for the molecule COC(=O)c1ccc(O)c(-n2cccc2C=O)c1 ?
147 to 148 °C

Which melting point reading was recorded for the molecule COCC(C)Nc1cc(-c2ccnc(Nc3cccc(Cl)c3)n2)ccn1 (configuration not stated) ?
143 to 144 °C

Which melting point reading was recorded for the molecule Clc1ccc2nc(CN3CCC(c4ccccc4)CC3)cn2c1 ?
132 to 133 °C

Which melting point reading was recorded for the molecule O=Cc1cc(S(=O)(=O)n2ccc3ccccc32)ccc1Br ?
106 to 108 °C

Which melting point reading was recorded for the molecule CNC1CCc2[nH]c3cccc(C)c3c2C1 (configuration not stated) ?
163 to 166 °C

Which melting point reading was recorded for the molecule COc1cc2c(cc1Br)Cc1cc(Br)ccc1-2 ?
172 °C

Which melting point reading was recorded for the molecule C=CC(CC(O)C(CC1CCCCC1)NC(=O)C(Cc1c[nH]cn1)NC(=O)C(Cc1ccccc1)N(C)C(=O)CC(C)(C)C)C(C)C (configuration not stated) ?
126 °C

Which melting point reading was recorded for the molecule O=C1Cc2cc(I)ccc2N1 ?
190 to 192 °C

Which melting point reading was recorded for the molecule Cc1cccc2oc(Nc3ccc(C(=O)O)cc3)nc12 ?
327 to 329 °C
